growth values, listed per item
tested on: SR leukemia; assay: NCI-60 one-dose screen, 48 h (100 = growth as untreated, 0 = no growth, -100 = all killed); details: 10 µM unless noted
About 83,000 compounds went through this panel and 20% of them were active in at least one assay; those are over-represented in the sample as a whole.
A number alone suffices; assume %.

# count of solved cases: 4
// query Form field: reported growth of "C#CCOc1cccc(Nc2ncnc3ccc(NC(=O)C=C)cc23)c1"
// result 21.1

// query Would you kindly repeat that for "COc1cc(/C=C2/C=C(c3ccccc3)N(CCc3ccc(S(N)(=O)=O)cc3)C2=O)cc(OC)c1OC" ?
// result 82.4

// query Repeat with "COC(=O)c1c(C)nc(C)c2c1C(=O)C(Br)=C(NCc1ccccc1)C2=O"
// result 27

// query Follow-up item: "O=C(CSc1oc(-c2ccccc2)nc1S(=O)(=O)c1ccccc1)Nc1ccc(F)cc1"
// result 83.8

Further cases:
// query Query (molecule): "N#Cc1ccc2c(c1)C(=O)c1c-2n(CCCN)c(=O)c2cc([N+](=O)[O-])ccc12" ; field requested: growth
// result -52

// query Entry "COc1ccc(NC2=C(I)C(=O)c3ncccc3C2=O)cc1" please
// result 6.66

// query Please give the result for "CC/C=C\C[C@H](O)C/C=C1/C(=O)C=C[C@@H]1C/C=C\CCCC(=O)N(C)C" too.
// result 6.2

// query Also "COC(=O)[C@]1(C)CCC[C@]2(C)[C@H]3C[C@H]4C(C(C)C)=C[C@]3(CC[C@H]21)[C@@H]1C(=O)CC[C@H](OCCC#N)[C@@H]14" , if possible.
// result 58.9

----------
tested on: BT-549 breast; assay: NCI-60 one-dose screen, 48 h; details: 10 µM unless noted
About 83,000 compounds went through this panel and 20% of them were active in at least one assay; those are over-represented in the sample as a whole. Activity calls are given as the source filed them. The calls were made as follows: active = growth percent below 10; inactive = the rest.
I would appreciate it if you answered using one of these outcomes: active, inactive

Example cases with answers are listed next.
// query Which outcome did this test record for the compound "Cc1[nH]c(C(=O)Nc2ccccc2OC2CCNCC2)c(Cl)c1Cl" ?
// result inactive

// query Next: "N=C(N)c1ccc(-c2ccc(-c3ccccc3)o2)cc1"
// result inactive

// query Same question for "COc1ccc(C2=C(Nc3ccc(C(=O)Nc4ccccc4)cc3)C(=O)N(C)C2=O)cc1" please.
// result inactive

// query Now consider "O=C(N/N=C/c1c(Cl)cccc1Cl)c1cccnc1Nc1cccc(C(F)(F)F)c1" and answer again.
// result inactive

// query "COC12C=C/C(=C(/C(=O)OCc3ccncc3)C(=O)CCCCCCCCC3(OC)C=C/C(=C(/C(=O)OCc4ccncc4)C(=O)CCCCCCCC1)O3)O2" ?
// result active

---
// query What did the test return for "COCCn1cc(-c2csc(-c3cn(C)c4ccc(Br)cc34)n2)c2cccnc21" ?
// result inactive

// query Now this one: COc1cc(C2c3cc(OC(C)=O)c(OC)cc3CC3C(=O)OCC32)ccc1OC(C)=O (stereo not given)
// result inactive

// query And what about the compound O=C(c1nn(-c2ccccc2)c2c1CC(NCc1ccc(F)cc1)CC2)N1CCCCC1 (stereo not given) ?
// result inactive

----------
Quick list: growth per entry.
test system: CAKI-1 renal; test: NCI-60 one-dose screen, 48 h (100 = growth as untreated, 0 = no growth, -100 = all killed); details: 10 µM unless noted
About 83,000 compounds went through this panel and 20% of them were active in at least one assay; those are over-represented in the sample as a whole.
The answer is to be given in %; state only the numeric part.

Check out these entries, answers already filled in.
// query Fill in: growth of "Cc1cc(=O)n(C(=O)Nc2ccccc2Cl)c2cc(O)ccc12" is ___
// result 92.3

// query Moving on to the next molecule: "O=C1/C=C/[C@@H](O)[C@@H]2C[C@@H](O)C[C@H]2/C=C/CCC[C@H](CCc2ccccc2)O1"
// result -8.69

Others:
// query Endpoint output: growth of Nc1ncnc2c1C(c1ccc(Br)cc1)c1sc3c(F)cccc3c1O2 (centres undefined) . Value?
// result 79.4

// query Next record, please: "CN1CCc2nc3sc(C(N)=O)c(N)c3c(-c3cccs3)c2C1"
// result 38.8

----------
tested on: SNB-75 CNS; experiment: NCI-60 one-dose screen, 48 h (100 = growth as untreated, 0 = no growth, -100 = all killed); settings: 10 µM unless noted
About 83,000 compounds went through this panel and 20% of them were active in at least one assay; those are over-represented in the sample as a whole.
Threshold check on growth: strictly below 80% is 1; on or above 80% is -1.

Take a look at these entries with their results.
// query Determine whether this compound shows growth lower than 80% (ties excluded): "Cn1ccnc1C(=O)/C=C/c1ccc(C(=O)Nc2ccccc2O)cc1"
// result 1

// query Another: "CSc1nc2ncc([N+](=O)[O-])c(=O)n2[nH]1"
// result -1

// query Next record, please: "Cc1[nH]c(=O)[nH]c(=O)c1Br"
// result -1

// query Try this compound too: "CCCCCC(/C=N\NC(=S)N/N=C/C(=C/c1ccccc1)CCCCC)=C\c1ccccc1"
// result -1

// query Entry "COc1ccccc1NC(=O)N=Nc1c(O)[nH]c2ccccc12" please
// result -1

// query Now this one: "CCCCNC(=O)CC1=C(C)/C(=C/c2[nH]c(-c3ccc[nH]3)cc2OC)N=C1C"
// result 1

// query Note, next up: "COc1cc2oc(-c3cccc(NC(=O)c4ccccc4)c3)cc(=O)c2c(OC)c1OC"
// result 1

// query And what about the compound "c1ccc(-c2oc(-c3ccccc3)c(CN3CCCCC3)c2CN2CCCCC2)cc1" ?
// result 1

Further cases:
// query Is the reported growth for "N#CC1=C(N)Oc2c(c(=O)[nH]c3ccc(Cl)cc23)C12C(=O)c1ccccc1C2=O" strictly below 80%?
// result 1

// query Let us now turn to O=C(c1nn(-c2ccccc2)c2c1CC(NCc1ccc(F)cc1)CC2)N1CCCCC1 (configuration not stated)
// result -1

// query What do we get for "COc1ccc(-c2nc3c(ncc4ccc(=O)[nH]c43)s2)cc1" ?
// result -1

----------
The compounds listed here are annotated with their growth.
tested on: OVCAR-5 ovarian; assay: NCI-60 one-dose screen, 48 h (100 = growth as untreated, 0 = no growth, -100 = all killed); conditions: 10 µM unless noted
This is part of a sample that, as a whole, favours compounds with a hit. Of some 83,000 tested, about 20% had one in any assay.
Answer with a number only, understood to be in %.

// query Returns the measured growth for the input compound. Input: "CC/C=C\C[C@H](O)C/C=C1/C(=O)C=C[C@@H]1C/C=C\CCCC(=O)N(C)C"
// result 19.2

// query Now consider "CCSc1oc(-c2ccccc2)nc1[P+](c1ccccc1)(c1ccccc1)c1ccccc1" .
// result 27.6

// query Repeat with "COC(=O)[C@]12CCC(C)(C)C[C@H]1[C@H]1/C(=N/OCCc3nn[nH]n3)C[C@@H]3[C@@]4(C)CC[C@H](OC(C)=O)C(C)(C)[C@@H]4CC[C@@]3(C)[C@]1(C)CC2"
// result 74.4

More entries:
// query What does the record list as growth for "CCn1cc(C(=O)NNC(=S)Nc2ccc(C)cc2)c(=O)c2ccc(C)nc21" ?
// result 107

// query "Fc1cc2c(cc1Cl)N(c1ncnc3ccc(-c4ccc5n[nH]nc5c4)cc13)CC2" ?
// result 76.5

----------
Test system: K-562 leukemia
Assay: NCI-60 one-dose screen, 48 h (100 = growth as untreated, 0 = no growth, -100 = all killed)
Details: 10 µM unless noted
Description: Cells are grown in 96 well plates and exposed to the test compound for 48 hours. Compounds are tested at a single concentration, which is 10^-5 M for most compounds. The reported endpoint is percent growth (GI% or GIPRCNT), where numbers from 0 - 100% represent growth inhibition, and numbers from -100% - 0 represent cell death. For example, a value of 40 represents 60% growth inhibition. A value of 0 means no net growth occurred over the course of the experiment. […]
The panel holds about 83,000 compounds, 20% with a hit somewhere; the sample as a whole holds those more often.
reported metric: growth (%)
Report the value in % with no unit label.

// query Entry under review: "N#CSc1c[nH]c2cccc(/C=C/C(=O)/C=C(/C=C/c3cccc4[nH]cc(SC#N)c34)OB(F)F)c12" . Reported growth?
// result -14.8

Others:
// query # growth lookup, item "N#Cc1c(-c2ccccc2)cc(-c2ccccc2)n(CCCC(=O)Nc2ccccc2N)c1=O"
// result 20.2

// query Check "O=C(O)c1cn(C2CC2)c2cc(N3CCN(C(=O)N(c4ccccc4)c4nc(-c5ccccc5)cs4)CC3)c(F)cc2c1=O" too.
// result 9.77
